Target: human SST-R2 (human, UniProt P30874)
Sequence (P30874 whole entry): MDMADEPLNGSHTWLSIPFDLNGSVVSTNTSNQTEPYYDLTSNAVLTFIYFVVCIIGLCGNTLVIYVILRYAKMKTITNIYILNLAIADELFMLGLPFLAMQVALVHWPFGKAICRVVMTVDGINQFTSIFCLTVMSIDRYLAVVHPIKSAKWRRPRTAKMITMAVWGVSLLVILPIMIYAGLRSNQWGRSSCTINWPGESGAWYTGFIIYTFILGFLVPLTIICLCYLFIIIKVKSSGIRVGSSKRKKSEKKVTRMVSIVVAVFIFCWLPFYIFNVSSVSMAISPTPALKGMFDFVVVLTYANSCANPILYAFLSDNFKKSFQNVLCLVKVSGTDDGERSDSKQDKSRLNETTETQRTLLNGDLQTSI
Test: competition, 125I-Tyr11-SRIF-14 radioligand
measurementName: pIC50
Numbers only, as −log10 of the molar value.

Before answering, review these 3 worked examples.
| binder | pIC50 |
| --- | --- |
| FGFWWKTFG (not fully specified; PTR 3219 core; 5- and 6-carboxyfluorescein-betaAla conjugate; cyclic GlyS2* to GlyS2*; D-Phe1, D-Trp; C-terminal amide) [YS-1-64] | 8.41 |
| FCFWWKTFG (not fully specified; PTR 3207 core; 5-(aminothionyl)fluorescein-GABA conjugate; cyclic Cys* to GlyS2*; D-Phe1, D-Trp; C-terminal amide) [YS-1-86] | 8.77 |
| XFWWKTFG (X = Dab; 5- and 6-carboxyfluorescein conjugate; backbone cyclic (Dab* to GlyC3*); D-Trp4; C-terminal GlyC3, amide) [PTR 1007A-01] | 7.11 |

Lab note: next binder to report on.
Given the entry FGFWWKTFG (not fully specified; PTR 3219 core; 5- and 6-carboxyfluorescein-GABA conjugate; cyclic GlyS2* to GlyS2*; D-Phe1, D-Trp; C-terminal amide) [YS-1-68] , report its measured pIC50.
8.24
